Reported pKd values follow for various compounds
Biological target: XIAP-BIR3 (Homo sapiens, UniProt P98170)
Sequence (P98170 241-356 limits assumed): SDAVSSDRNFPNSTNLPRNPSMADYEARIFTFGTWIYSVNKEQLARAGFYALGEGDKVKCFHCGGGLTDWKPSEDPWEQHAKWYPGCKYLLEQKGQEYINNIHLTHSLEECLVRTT
Experiment: XIAP BIR3 fluorescence polarization binding assay (competition with AbuRPF-K(5-Fam)-NH2)
Conditions: 5 nM AbuRPF-K(5-Fam)-NH2, 40 nM XIAP-BIR3, pH 7.5; Kd calculated from measured IC50; read-out: KD Range
pKd: −log10 of the molar value.
MEASURE NAME: pKd

1) CN[C@@H](C)C(=O)N[C@H](C(=O)N1C[C@@H](Oc2ccccc2)C[C@H]1COc1ccccc1)C(C)C = 6.00 to 7.00
2) CC(N)C(=O)NC(C(=O)N1CCCC1Cc1c(-c2nccs2)oc2ccccc12)C(C)C (stereo not drawn) = 6.00 to 7.00
3) CC(N)C(=O)NC(C(=O)N1CCCC1COc1ccccc1-c1ccccc1)C(C)C (stereo not drawn) = 6.00 to 7.00
4) CC(C)[C@H](NC(=O)[C@H](C)N)C(=O)N1CCC[C@H]1Cc1c[nH]c2ccccc12 = 6.00 to 7.00
5) C[C@H](N)C(=O)N[C@H](C(=O)N1C[C@@H](Oc2ccccc2)C[C@H]1Cc1coc2ccccc12)C(C)(C)C = > 7.00
6) CCc1ccccc1OCCCC1CCCN1C(=O)C(NC(=O)C(C)N)C(C)C (stereo not drawn) = 5.00 to 6.00
7) CC(N)C(=O)NC1CCCCNC(=O)CCc2oc3ccccc3c2CC2CCCN2C1=O (stereo not drawn) = 5.00 to 6.00
8) CC(C)[C@H](NC(=O)[C@H](C)N)C(=O)N1C[C@@H](Oc2ccccc2)C[C@H]1/C=C/COc1ccccc1 = 6.00 to 7.00
9) CC(C)C(NC(=O)C(C)(C)N)C(=O)N1CCCC1Cc1coc2ccccc12 (stereo not drawn) = < 5.00

====

Target: XIAP-BIR3 (Homo sapiens)
Test: XIAP BIR3 fluorescence polarization binding assay (competition with AbuRPF-K(5-Fam)-NH2)
Details: 5 nM AbuRPF-K(5-Fam)-NH2, 40 nM XIAP-BIR3, pH 7.5; Kd calculated from measured IC50; read-out: KD Range
MEASURE NAME: Kd

1. CNC(C)C(=O)NC(C(=O)N1CCCC1Cc1c(-c2cccs2)[nH]c2cc(F)ccc12)C(C)(C)C (stereo not shown) = < 100 nM
2. CC(N)C(=O)NC(C(=O)N1CCCC1Cc1coc2ccc(OCC3CC3)cc12)C(C)C (stereo not shown) = > 10000 nM
3. CC[C@H](NC(=O)[C@@H](N)CC)C(=O)N1C[C@@H](Oc2ccccc2)C[C@H]1Cc1coc2ccccc12 = 100 to 1000 nM
4. CC(N)C(=O)NC(C(=O)N1CCCC1Cc1coc2ccc(-c3ccncc3)cc12)C(C)C (stereo not shown) = 100 to 1000 nM
